Conditions: mouse, plasma, 1 h, 10 µM
Listing of recorded % Remaining (1 h) by entry.
Readout Name: % Remaining (1 h) (%)

1) COc1cc(O)c(-c2nnc(C(=O)NC(C)C)n2-c2ccc(CN3CCC(C(=O)Nc4cccc5c4CN(C4CCC(=O)NC4=O)C5=O)CC3)cc2)cc1C(C)C (centres unmarked) :: 85.9
2) CC(C)c1cc(-c2nnc(O)n2-c2ccc(CN3CCN(C(=O)O[C@H]4CC[C@@]5(C)C(=CC[C@@H]6[C@@H]5CC[C@]5(C)C(c7cccnc7)=CC[C@@H]65)C4)CC3)cc2)c(O)cc1O :: 103
3) CCc1c2c(nc3ccc(OC(=O)N4CCC(N5CCCCC5)CC4)cc13)-c1cc3c(c(=O)n1C2)COC(=O)[C@]3(O)CC [irinotecan, reference compound] :: 32.5
4) CCc1c2c(nc3ccc(O)cc13)-c1cc3c(c(=O)n1C2)COC(=O)C3(CC)OC(=O)N(C)CCCCN1CCN(Cc2ccc(-n3c(O)nnc3-c3cc(C(C)C)c(O)cc3O)cc2)CC1 (centres unmarked) :: 103
5) CCNC(=O)c1nnc(-c2cc(C(C)C)c(O)cc2O)n1-c1ccc(C(=O)N(C)CC(=O)Nc2cccc3c2CN(C2CCC(=O)NC2=O)C3=O)cc1 (centres unmarked) :: 98.1
6) CC(C)c1cc(-c2nnc(O)n2-c2ccc(CN3CCN(c4cnc(C(=O)Nc5cccc6c5CN(C5CCC(=O)NC5=O)C6=O)cn4)CC3)c(F)c2)c(O)cc1O (centres unmarked) :: 94.1
7) CC(C)c1cc(-c2nnc(O)n2-c2ccc(CN3CCN(C(=O)c4ccc(COC(=O)Nc5cccc6c5CN(C5CCC(=O)NC5=O)C6=O)cc4)CC3)c(F)c2)c(O)cc1O (centres unmarked) :: 81.4
8) CCc1c2c(nc3ccc(OC(=O)N4CCC(CCn5ccc6cc(-n7c(O)nnc7-c7cc(C(C)C)c(O)cc7O)ccc65)CC4)cc13)-c1cc3c(c(=O)n1C2)COC(=O)[C@]3(O)CC :: 11.1
9) CCNC(=O)c1nnc(-c2cc(C(C)C)c(O)cc2O)n1-c1ccc(Oc2ccc(C(=O)N3CCC(COC(=O)Nc4cccc5c4CN(C4CCC(=O)NC4=O)C5=O)CC3)cc2)cc1 (centres unmarked) :: 99.4
10) CCNC(=O)c1nnc(-c2cc(C(C)C)c(O)cc2O)n1-c1ccc(Oc2ccc(C(=O)N[C@@H](CC(C)C)C(=O)Nc3cccc4c3CN(C3CCC(=O)NC3=O)C4=O)cc2)cc1 (some centres unmarked) :: 77.4
11) CCc1c2c(nc3ccc(OCC(=O)N(C)CCOCCn4ccc5cc(-n6c(O)nnc6-c6cc(C(C)C)c(O)cc6O)ccc54)cc13)-c1cc3c(c(=O)n1C2)COC(=O)C3(O)CC (centres unmarked) :: 40.9
12) CCNC(=O)c1nnc(-c2cc(C(C)C)c(O)cc2O)n1-c1ccc(CN2CCC(C(=O)N3CCC[C@H]3C(=O)Nc3cccc4c3CN(C3CCC(=O)NC3=O)C4=O)CC2)cc1 (some centres unmarked) :: 98.0
13) CC(C)c1cc(-c2nnc(O)n2-c2ccc(N3CCN(C(=O)c4ccc(COC(=O)Nc5cccc6c5CN(C5CCC(=O)NC5=O)C6=O)cc4)CC3)cc2)c(O)cc1O (centres unmarked) :: 90.3
14) CC(C)c1cc(-c2nnc(O)n2-c2ccc(CN3CCN(C(=O)c4ccc(CCc5c[nH]c6nc(N)[nH]c(=O)c56)cc4)CC3)cc2)c(O)cc1O :: 96.5
15) CC(C)c1cc(-c2nnc(O)n2-c2ccc(CC(=O)N(C)CCOC(=O)Nc3cccc4c3CN(C3CCC(=O)NC3=O)C4=O)cc2)c(O)cc1O (centres unmarked) :: 87.3
16) CC(C)c1cc(-c2nnc(O)n2-c2ccc(CN3CCN(C(=O)ONC(=O)CCCCCCC(=O)Nc4ccccc4)CC3)cc2)c(O)cc1O :: 3.97
17) CO[C@H]1/C=C\C=C(/C)C(=O)NC2=CC(=O)C(NCCCCCCNC(=O)c3ncn4c(=O)n(C)nnc34)=C(C[C@@H](C)C[C@H](OC)[C@@H](O)[C@@H](C)/C=C(\C)[C@@H]1OC(N)=O)C2=O :: 63.2
18) CCNC(=O)c1nnc(-c2cc(C(C)C)c(O)cc2O)n1-c1ccc2c(c1)CN(C(=O)c1ccc(S(=O)(=O)Oc3ccc4nc5c(c(CC)c4c3)Cn3c-5cc4c(c3=O)COC(=O)C4(O)CC)cc1)C2 (centres unmarked) :: 47.8
19) CCNC(=O)c1nnc(-c2cc(C(C)C)c(O)cc2O)n1-c1ccc(CN2CCC(C(=O)N3CCC(n4cc(-c5cnc(N)c(O[C@H](C)c6c(Cl)ccc(F)c6Cl)c5)cn4)CC3)CC2)cc1 :: 108
20) CCNC(=O)c1nnc(-c2cc(C(C)C)c(O)cc2O)n1-c1ccc(CN2CCC(C(=O)N3CCC(OC(=O)Nc4cccc5c4CN(C4CCC(=O)NC4=O)C5=O)CC3)CC2)cc1 (centres unmarked) :: 95.6

---

Assay: Stability in cell culture media (Example 18)
Details: sum of both peaks
Listing of recorded Media (5 μM) % Remaining 1 h (37° C.)* by entry.
Readout Name: Media (5 μM) % Remaining 1 h (37° C.)* (%)

1) CCc1c2c(nc3ccc(OC(=O)N(C)CCOCCn4ccc5cc(-n6c(O)nnc6-c6cc(C(C)C)c(O)cc6O)ccc54)cc13)-c1cc3c(c(=O)n1C2)COC(=O)C3(O)CC (stereo not drawn) :: 46
2) CCc1c2c(nc3ccc(OC(=O)N(C)CCCCN4CCN(Cc5ccc(-n6c(O)nnc6-c6cc(C(C)C)c(O)cc6O)cc5)CC4)cc13)-c1cc3c(c(=O)n1C2)COC(=O)C3(O)CC (stereo not drawn) :: 50
3) CCc1c2c(nc3ccc(O)cc13)-c1cc3c(c(=O)n1C2)COC(=O)C3(CC)OC(=O)N(C)CCOCCn1ccc2cc(-n3c(O)nnc3-c3cc(C(C)C)c(O)cc3O)ccc21 (stereo not drawn) :: 67
4) CCc1c2c(nc3ccc(O)cc13)-c1cc3c(c(=O)n1C2)COC(=O)[C@]3(O)CC [SN-38, reference compound] :: 82
5) CCc1c2c(nc3ccc(OC(=O)N4CCN(Cc5ccc(-n6c(O)nnc6-c6cc(C(C)C)c(O)cc6O)cc5)CC4)cc13)-c1cc3c(c(=O)n1C2)COC(=O)C3(O)CC (stereo not drawn) :: 65
6) CCc1c2c(nc3ccc(OC(=O)N4CCN(c5ccc(-n6c(O)nnc6-c6cc(C(C)C)c(O)cc6O)cc5)CC4)cc13)-c1cc3c(c(=O)n1C2)COC(=O)C3(O)CC (stereo not drawn) :: 77

---

Test: in vivo
Conditions: female, SCID, mouse
Readout Name: Kp at 6 h

1) CC(C)c1cc(-c2nnc(O)n2-c2ccc(CN3CCN(C(=O)Oc4ccc(COC(=O)Nc5cccc6c5CN(C5CCC(=O)NC5=O)C6=O)cc4)CC3)c(F)c2)c(O)cc1O (stereo not shown) :: 1.59

---

Assay: Retention of docetaxel SDC-TRAPs in plasma and tumor (Example 53)
Assay type: in vivo, Female SCID Mouse (H1975)
Settings: female, SCID, mouse, in vivo; of analyte at 72 h; dosed SDC-TRAP-0427 7 mg/10 mL/kg IV, DRD; Table 5, second optimized procedure; read-out: Plasma Conc.
Readout Name: concentration at 72 h

1. CC(=O)O[C@@]12CO[C@@H]1C[C@H](O)[C@@]1(C)C(=O)[C@H](O)C3=C(C)[C@@H](OC(=O)[C@H](OC(=O)CCC(=O)NC4CCN(C(=O)C5CCN(Cc6ccc(-n7c(O)nnc7-c7cc(C(C)C)c(O)cc7O)cc6)CC5)CC4)[C@@H](NC(=O)OC(C)(C)C)c4ccccc4)C[C@@](O)([C@@H](OC(=O)c4ccccc4)[C@H]21)C3(C)C :: 10.1 nM

---

Conditions: mouse, plasma, 1 h, 10 µM
Readout Name: % Remaining (1 h) (%)

1. CCc1c2c(nc3ccc(OS(=O)(=O)c4cccc(C(=O)N5CCN(Cc6ccc(-n7c(O)nnc7-c7cc(C(C)C)c(O)cc7O)cc6)CC5)c4)cc13)-c1cc3c(c(=O)n1C2)COC(=O)C3(O)CC (stereo not shown) :: 77.7
2. CCNC(=O)c1nnc(-c2cc(C(C)C)c(O)cc2O)n1-c1ccc(CN2CCC(C(=O)N3CCC(COC(=O)Nc4cccc5c4CN(C4CCC(=O)NC4=O)C5=O)CC3)CC2)cc1 (stereo not shown) :: 112
3. CCc1c2c(nc3ccc(OS(=O)(=O)c4ccc(C(=O)N5CCC(CCn6ccc7cc(-n8c(O)nnc8-c8cc(C(C)C)c(O)cc8O)ccc76)CC5)cc4)cc13)-c1cc3c(c(=O)n1C2)COC(=O)C3(O)CC (stereo not shown) :: 92.5
4. CC(C)c1cc(-c2nnc(O)n2-c2ccc3c(ccn3CCCC3CCN(C(=O)c4ncn5c(=O)n(C)nnc45)CC3)c2)c(O)cc1O :: 63.8
